Exercise: state measured normalized growth for each of the compounds provided.
assay-protocol: chemical genetic growth profiling, strain panel (AID 1159580);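 also: tested at 20 µM; growth read once vehicle control cultures reached saturation at 30 °C; 1 = growth at the plate median or of vehicle wells; lower values mean less growth of the strain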
experimental-conditions: S. cerevisiae deletion strains, growth OD, locus YDL005C, strain med2, active compounds read low
In all, about 5,500 compounds went through this assay and about 2,000 (36%) were called active. Another 18% or so got no clear call; they are omitted. Some of the results follow.
Would you mind answering with just the numeric figure?

Value lookup for normalized growth; key = O=[N+]([O-])c1cccc2c(Br)[nH]nc12 0.977

Would you mind doing CN(C)CCC(c1ccc(Br)cc1)c1ccccn1 (stereo unspecified) as well? 0.975

Consider next the compound O=[N+]([O-])c1cccc2cn[nH]c12 in the same way. 0.997

Now try CN(C)N=Nc1nc[nH]c1C(N)=O . 0.965

What do you have for Cc1cc(=O)oc2c(O)c(O)ccc12 ? 0.958

Record: CO[C@]12C[C@@H](COC(=O)c3cncc(Br)c3)CN(C)[C@@H]1Cc1cn(C)c3cccc2c13 0.979
